system-name: human Mac-1 (integrin αMβ2, CD11b/CD18) (human, UniProt P11215 17-1152; P05107 23-769)
experiment: flow cytometry, HEK293/Mac-1 cells, PBS/MnCl2 (Mn2+), 10 µg/ml of this antibody; binding of reporter mAb m24 read
Parameter m24 (Expression relative to IgG4): see the listing below.

# binder, observation-type, observed-result
records = [
    ("anti-Mac-1 antibody clone 27E12 (antibody, human IgG4, V domains shown) VH: QVQLQQSGTVLARPGASVKMSCKASGYTFTSYWMHWVKQRPGQGLEWIGAIYPGNSDTSYNQKFKGKAKLTAVTSASTAYMELSSLTNEDSAVYYCTRGGGSYEFAYWGQGTTVTVSS VL: DIELTQSPAIMSASPGEKVTMTCSVSSSVSYMYWYQQKPGSSPRLLIYDTSNLASGVPARFSGSGSGTSYSLTISSMEAEDAATYYCQQWSSNPFTFGSGTKLEIK", "m24 (Expression relative to IgG4)", "0.85 relative to IgG4"),
    ("anti-Mac-1 antibody clone DF4M-31 (antibody, human IgG4, V domains shown) VH: EVQLVESGGGLVQPGGSLRLSCAASGFTFTSATMSWVRQAPGKGLEWVSIISPGGSETYYADSVKGRFTISRDNSKNTLYLQMNSLRAEDTAVYYCARGGDYPSYYMDPWGQGTLVTVSS VL: DIQMTQSPSSLSASVGDRVTITCRASQSISNYLAWYQQKPGKAPKLLIYGTSSLQSGVPSRFSGSGSGTDFTLTISSLQPEDFATYYCQQGHQWPWTFGQGTKVEIK", "m24 (Expression relative to IgG4)", "3.87 relative to IgG4"),
]

With those in mind, consider the next binder.
// anti-Mac-1 antibody clone 24G05 (antibody, human IgG4, V domains shown) VH: EVQLVESGGGLVQPGGSLRLSCAASGFTFTSYWMTWVRQAPGKGLEWVSTIVGGGGEADYADSVKGRFTISRDNSKNTLYLQMNSLRAEDTAVYYCARDYVADNHGAMDYWGQGTLVTVSS VL: DIQMTQSPSSLSASVGDRVTITCRASQGLSSYLNWYQQKPGKAPKLLIYGMSTLQSGVPSRFSGSGSGTDFTLTISSLQPEDFATYYCMQYYHWPYTFGQGTKVEIK : m24 (Expression relative to IgG4) value = 3.85 relative to IgG4
